Where do the numbers come from? From the METLIN SMRT retention time set (Domingo-Almenara et al. 2019).

procedure-summary: gradient 5% acetonitrile 3 min, to 50% in 2 min, to 85% in 15 min, held 3 min, 100 µL/min
experimental-setup: column: Zorbax Extend-C18 2.1 x 50 mm; eluents: water / acetonitrile, 0.1% formic acid
Define the label as true when RP-LC retention time is strictly less than 800 s and as false in all remaining cases.

O=C(NCC1CC1)c1cn(-c2ncccc2-c2nc(-c3ccccc3)no2)cn1 ... false
CC(C)Cc1nc(CNC(=O)C2CCCCC2)no1 ... false
CC(=O)/C=C1\C(=O)N(C)c2ccccc21 ... false
COCCNc1c(-c2ccccc2)nc2sc(C(=O)NC(C)C)c(C)n12 ... true
Cn1cccc1C(CNS(=O)(=O)c1ccc(F)c(Cl)c1)N1CCOCC1 (stereo not given) ... true
CCOc1ccc(N2C=C(C(=O)N3CCOCC3)S(=O)(=O)c3ccc(F)cc32)cc1 ... false
Cn1nc(CNC(=O)C2(C)CCCCC2)c2c1CCN(S(C)(=O)=O)C2 ... true
O=C(NCCCn1ccnc1)C(=O)NCCC1=CCCCC1 ... true
CN1C(=O)c2cc(C(=O)NCCCc3ccccc3)nn2CC1(C)C(=O)NC1CCCCC1 (stereo not given) ... false

is_below(RP-LC retention time, 800 s) for Cc1cc(S(=O)(=O)N2CCC3(CC2)CCC(O)(CN2CCCC2)CC3)ccc1Cl ? true
